molecular target: Serine/threonine-protein kinase TBK1 (Homo sapiens); experiment: Inhibition of TBK1 (unknown origin) using fluorescein-labelled DRHDSGLDSMKDE as substrate after 1 hr by TR-FRET assay
endpoint-label: INH (nM)

{"columns": ["smiles", "INH / nM"],
 "data": [
  ["CN1CCN(Cc2ccc(Nc3nccc(-c4cnc(N5CC[C@H](F)C5)c(C#N)c4)n3)cn2)CC1", 17]
]}

[I] CCN1CCN(Cc2ccc(Nc3nccc(-c4cnc(N5CC[C@@H](F)C5)c(C#N)c4)n3)cn2)CC1
[II] CCN1CCN(Cc2ccc(Nc3nccc(-c4cnc(N5CC[C@H](F)C5)c(C#N)c4)n3)cn2)CC1
**Query** Return label of the item with the larger INH. Candidates: I , II . Return value: the label identifying the chosen record.
**Result** I
(I: 20 nM, II: 9 nM)

---

molecular target: Inhibitor of nuclear factor kappa-B kinase subunit epsilon (Homo sapiens) (UniProt Q14164); assay: Inhibition of IKK-epsilon (unknown origin) using fluorescein-labelled DRHDSGLDSMKDE as substrate after 1 hr by TR-FRET assay
Sequence (Q14164 whole entry): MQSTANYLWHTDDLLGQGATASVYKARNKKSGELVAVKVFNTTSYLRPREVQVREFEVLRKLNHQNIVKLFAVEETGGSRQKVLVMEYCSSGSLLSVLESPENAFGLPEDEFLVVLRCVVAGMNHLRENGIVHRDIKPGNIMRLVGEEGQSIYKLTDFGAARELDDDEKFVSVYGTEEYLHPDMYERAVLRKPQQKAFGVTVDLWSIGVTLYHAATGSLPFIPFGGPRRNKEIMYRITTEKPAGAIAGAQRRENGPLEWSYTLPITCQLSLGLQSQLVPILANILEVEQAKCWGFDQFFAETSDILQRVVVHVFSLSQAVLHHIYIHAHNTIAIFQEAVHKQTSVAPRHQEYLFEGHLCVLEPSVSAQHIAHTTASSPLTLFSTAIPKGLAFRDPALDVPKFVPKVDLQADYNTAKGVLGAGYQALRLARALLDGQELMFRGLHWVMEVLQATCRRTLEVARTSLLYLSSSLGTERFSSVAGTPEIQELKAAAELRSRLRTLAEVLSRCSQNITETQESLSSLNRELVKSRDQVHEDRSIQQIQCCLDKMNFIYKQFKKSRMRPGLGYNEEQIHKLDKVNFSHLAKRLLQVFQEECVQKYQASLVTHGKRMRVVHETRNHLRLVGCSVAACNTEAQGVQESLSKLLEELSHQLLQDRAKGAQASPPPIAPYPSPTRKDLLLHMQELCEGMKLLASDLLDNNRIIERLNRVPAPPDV
INH reference

Example entries and their recorded answers appear below.
{"columns": ["smiles", "test-target", "INH"],
 "data": [
  ["N#Cc1cc(-c2ccnc(Nc3ccc(NC(=O)CN4CCOCC4)nc3)n2)cnc1N1CC[C@H](F)C1", "Inhibitor of nuclear factor kappa-B kinase subunit epsilon (Homo sapiens) (UniProt Q14164)", "< 30 nM"],
  ["N#Cc1cc(-c2ccnc(Nc3ccc(CN4CCNC(=O)C4)nc3)n2)cnc1N1CC[C@H](F)C1", "Inhibitor of nuclear factor kappa-B kinase subunit epsilon (Homo sapiens) (UniProt Q14164)", "< 15 nM"]
]}

// moving on: another record for INH
**Query** Sample `N#Cc1cc(-c2ccnc(Nc3ccc(CN4CCOCC4)nc3)n2)cnc1N1CC[C@H](F)C1` — what was its INH?
**Result** < 15 nM

---

INH reference
biological target: Serine/threonine-protein kinase TBK1 (Homo sapiens); assay: Inhibition of TBK1 (unknown origin) using fluorescein-labelled DRHDSGLDSMKDE as substrate after 1 hr by TR-FRET assay

Example entries and their recorded answers appear below.
{"columns": ["smiles", "reading"],
 "data": [
  ["N#Cc1cc(-c2ccnc(Nc3ccc(CN4CCNC(=O)C4)nc3)n2)cnc1N1CC[C@H](F)C1", "< 15 nM"],
  ["N#Cc1cc(-c2ccnc(Nc3ccc(NC(=O)CN4CCOCC4)nc3)n2)cnc1N1CC[C@H](F)C1", "< 30 nM"]
]}

// moving on: another record for INH
**Query** Sample `N#Cc1cc(-c2ccnc(Nc3ccc(CN4CCOCC4)nc3)n2)cnc1N1CC[C@H](F)C1` — what was its INH?
**Result** < 15 nM
